system name: GlyRS (Homo sapiens)
Construct: made in house; host or cells: E. coli BL21(DE3)
protocol description: Bio-layer interferometry (BLI) binding assay
condition summary: BLI, mean ± SD, three repeats (Table 2); read-out: KD
measured attribute: Kd (nM)
API: value field is a number in nM; no unit string.

Query: Could you tell me which Kd is on file for O=c1cc(-c2ccc(O)cc2)oc2cc(O)c(O)c(O)c12 [Scutellarein] ?
Result: 2880

====

Listed compounds paired with reported Kd
system name: GlyRS (Homo sapiens, UniProt P41250)
Construct: made in house; host or cells: E. coli BL21(DE3)
protocol description: Bio-layer interferometry (BLI) binding assay
condition summary: BLI, immobilized His-tagged GlyRS, mean ± SD, three repeats; read-out: KD

| compound | Kd |
| --- | --- |
| CC(=O)N[C@@H](C)C(=O)O | 24.9 µM |

Query: Could you tell me which Kd is on file for Oc1cc2c3c(c1)c1cc4c(cc1c[n+]3CC2)OCO4 ?
Result: 43.5 µM

Query: Could you tell me which Kd is on file for COC[C@H]1C[C@@H](c2nc(-c3ccc4c(c3)COc3cc5c(ccc6nc([C@@H]7CC[C@H](C)N7C(=O)[C@@H](NC(=O)OC)C(C)C)[nH]c65)cc3-4)c[nH]2)N(C(=O)[C@H](NC(=O)OC)c2ccccc2)C1 [Velpatasvir, reference compound] ?
Result: 11.7 µM

Query: Could you tell me which Kd is on file for Cc1c(OCC(F)(F)F)ccnc1C[S+]([O-])c1nc2ccccc2[nH]1 (stereo not shown) [Lansoprazole, reference compound] ?
Result: 12.5 µM

Query: Could you tell me which Kd is on file for Oc1c(I)cc(I)c2cccnc12 [Iodoquinol, reference compound] ?
Result: 7.14 µM

Query: Could you tell me which Kd is on file for C[C@@H]1C[C@H]2[C@@H]3CCC4=CC(=O)C=C[C@]4(C)[C@@]3(Cl)[C@@H](O)C[C@]2(C)[C@@]1(OC(=O)c1ccco1)C(=O)CCl [Mometasone furoate, reference compound] ?
Result: 1.82 µM

Query: Could you tell me which Kd is on file for COC(=O)C1=C(C)NC(C)=C(C(=O)OCC(C)C)C1c1ccccc1[N+](=O)[O-] (stereo not shown) [Nisoldipine, reference compound] ?
Result: 47.7 µM

====

system name: GlyRS (Homo sapiens, UniProt P41250)
Construct: made in house; host or cells: E. coli BL21(DE3)
Sequence (P41250 37-739): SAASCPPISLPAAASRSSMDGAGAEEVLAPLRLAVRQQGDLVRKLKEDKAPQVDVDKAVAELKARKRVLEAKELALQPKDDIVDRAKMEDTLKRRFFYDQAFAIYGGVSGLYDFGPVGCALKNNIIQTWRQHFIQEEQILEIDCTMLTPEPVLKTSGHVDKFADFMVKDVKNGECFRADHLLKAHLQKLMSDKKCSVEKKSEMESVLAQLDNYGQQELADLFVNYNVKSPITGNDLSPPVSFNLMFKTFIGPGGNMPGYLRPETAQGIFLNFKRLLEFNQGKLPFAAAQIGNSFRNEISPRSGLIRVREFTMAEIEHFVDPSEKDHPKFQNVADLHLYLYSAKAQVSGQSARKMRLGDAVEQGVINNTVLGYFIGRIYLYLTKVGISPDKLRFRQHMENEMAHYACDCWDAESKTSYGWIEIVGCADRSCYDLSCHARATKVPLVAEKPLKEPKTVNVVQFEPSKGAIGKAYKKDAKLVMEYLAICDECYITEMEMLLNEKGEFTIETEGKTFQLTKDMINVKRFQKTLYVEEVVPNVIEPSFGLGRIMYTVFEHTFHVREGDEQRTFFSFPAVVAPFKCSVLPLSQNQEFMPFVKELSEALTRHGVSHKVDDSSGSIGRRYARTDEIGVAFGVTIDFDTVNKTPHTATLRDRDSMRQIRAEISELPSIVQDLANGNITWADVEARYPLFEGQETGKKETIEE
protocol description: Enzyme inhibition assay (ATP consumption assay)
Format: biochemical
condition summary: 1 μM GlyRS at 20 μM compounds; average of two independent experiments
measured attribute: Relative Enzyme Activity (%)
API: value field is a number in %; no unit string.

| molecule | Relative Enzyme Activity (%) |
| --- | --- |
| C[C@@H]1C[C@H]2[C@@H]3CCC4=CC(=O)C=C[C@]4(C)[C@@]3(Cl)[C@@H](O)C[C@]2(C)[C@@]1(OC(=O)c1ccco1)C(=O)CCl [Mometasone furoate, reference compound] | 91.2 |
| COC(=O)C1=C(C)NC(C)=C(C(=O)OCC(C)C)C1c1ccccc1[N+](=O)[O-] (stereo not drawn) [Nisoldipine, reference compound] | 67.3 |

Query molecule follows.
Query: Could you tell me which Relative Enzyme Activity is on file for O=c1cc(-c2ccc(O)cc2)oc2cc(O)c(O)c(O)c12 [Scutellarein] ?
Result: 27.3

====

Listed compounds paired with reported pIC50
system name: GlyRS (Homo sapiens)
Sequence (P41250 37-739): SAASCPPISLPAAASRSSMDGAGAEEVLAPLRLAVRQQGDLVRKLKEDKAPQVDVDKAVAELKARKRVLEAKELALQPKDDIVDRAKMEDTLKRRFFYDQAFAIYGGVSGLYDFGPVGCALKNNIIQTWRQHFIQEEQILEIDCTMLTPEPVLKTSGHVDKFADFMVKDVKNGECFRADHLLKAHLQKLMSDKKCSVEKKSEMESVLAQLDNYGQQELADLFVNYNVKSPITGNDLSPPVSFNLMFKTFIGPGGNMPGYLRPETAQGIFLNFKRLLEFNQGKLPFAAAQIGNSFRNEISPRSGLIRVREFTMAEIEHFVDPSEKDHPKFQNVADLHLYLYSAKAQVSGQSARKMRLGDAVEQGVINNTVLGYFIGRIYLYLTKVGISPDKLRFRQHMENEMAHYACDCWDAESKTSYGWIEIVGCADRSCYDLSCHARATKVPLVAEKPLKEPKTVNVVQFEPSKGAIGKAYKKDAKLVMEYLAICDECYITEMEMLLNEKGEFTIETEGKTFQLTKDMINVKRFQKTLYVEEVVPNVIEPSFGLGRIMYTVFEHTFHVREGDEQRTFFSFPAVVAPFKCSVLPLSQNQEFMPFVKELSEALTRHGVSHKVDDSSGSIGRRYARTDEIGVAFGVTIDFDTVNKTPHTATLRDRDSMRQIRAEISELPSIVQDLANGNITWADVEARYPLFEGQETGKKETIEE
Expect pIC50 as a plain number equal to -log10 of the molar concentration.

| chem smiles | pIC50 |
| --- | --- |
| O=c1cc(-c2ccc(O)cc2)oc2cc(O)c(O)c(O)c12 | 5.65 |

Query compound follows.
Query: Could you tell me which pIC50 is on file for Oc1cc2c3c(c1)c1cc4c(cc1c[n+]3CC2)OCO4 ?
Result: 6.96

====

protocol description: in vitro
Assay type: cell-based
condition summary: human
measured attribute: CC50 at 24 h (µM)
API: value field is a number in µM; no unit string.

| compound | CC50 at 24 h [µM] |
| --- | --- |
| O=c1cc(-c2ccc(O)cc2)oc2cc(O)c(O)c(O)c12 [Scutellarein] | 29.4 |

Query compound follows.
Query: Could you tell me which CC50 at 24 h is on file for Oc1cc2c3c(c1)c1cc4c(cc1c[n+]3CC2)OCO4 [Lycobetaine] ?
Result: 16

====

system name: GlyRS (Homo sapiens, UniProt P41250)
Construct: made in house; host or cells: E. coli BL21(DE3)
Sequence (P41250 37-739): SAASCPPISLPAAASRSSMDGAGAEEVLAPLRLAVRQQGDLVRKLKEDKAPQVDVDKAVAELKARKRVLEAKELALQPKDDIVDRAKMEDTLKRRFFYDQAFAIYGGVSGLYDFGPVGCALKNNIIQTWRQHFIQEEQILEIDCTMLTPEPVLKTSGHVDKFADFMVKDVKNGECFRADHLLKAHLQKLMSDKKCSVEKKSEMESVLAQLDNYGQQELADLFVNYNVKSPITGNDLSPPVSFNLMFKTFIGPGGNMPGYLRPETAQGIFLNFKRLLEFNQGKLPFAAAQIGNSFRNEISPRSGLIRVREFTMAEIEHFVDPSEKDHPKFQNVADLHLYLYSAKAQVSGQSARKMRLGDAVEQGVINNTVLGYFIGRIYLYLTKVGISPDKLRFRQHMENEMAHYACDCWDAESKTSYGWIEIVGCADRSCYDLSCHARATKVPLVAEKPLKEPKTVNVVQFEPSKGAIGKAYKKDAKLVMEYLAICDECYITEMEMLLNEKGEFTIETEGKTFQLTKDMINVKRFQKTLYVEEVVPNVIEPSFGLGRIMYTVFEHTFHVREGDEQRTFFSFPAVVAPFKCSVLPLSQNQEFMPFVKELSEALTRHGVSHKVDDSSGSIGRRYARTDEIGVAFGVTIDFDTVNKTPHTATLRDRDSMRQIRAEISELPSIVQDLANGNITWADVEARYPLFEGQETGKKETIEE
protocol description: Bio-layer interferometry (BLI) binding assay
condition summary: BLI, immobilized GlyRS
measured attribute: Kon

| compound | measured attribute | recorded value |
| --- | --- | --- |
| COC(=O)C1=C(C)NC(C)=C(C(=O)OCC(C)C)C1c1ccccc1[N+](=O)[O-] (stereo not drawn) [Nisoldipine, reference compound] | Kon | 86.16 ± 27.50 (1/MS) × 10^3 |
| Oc1c(I)cc(I)c2cccnc12 [Iodoquinol, reference compound] | Kon | 3.10 ± 0.51 (1/MS) × 10^3 |
| Cc1c(OCC(F)(F)F)ccnc1C[S+]([O-])c1nc2ccccc2[nH]1 (stereo not drawn) [Lansoprazole, reference compound] | Kon | 7.23 ± 2.14 (1/MS) × 10^3 |

Query: Could you tell me which Kon is on file for CC(=O)N[C@@H](C)C(=O)O ?
Result: 396.20 ± 85.48 (1/MS) × 10^3

Query: Could you tell me which Kon is on file for O=c1cc(-c2ccc(O)cc2)oc2cc(O)c(O)c(O)c12 ?
Result: 3.96 ± 1.05 (1/MS) × 10^3

Query: Could you tell me which Kon is on file for CC(C)c1cc2c(c(O)c1O)[C@@]1(C(=O)O)CCCC(C)(C)[C@@H]1CC2 ?
Result: 1.13 ± 0.26 (1/MS) × 10^3

Query: Could you tell me which Kon is on file for Cc1ccc(S(=O)(=O)NCl)cc1 ?
Result: 52.28 ± 13.31 (1/MS) × 10^3

Query: Could you tell me which Kon is on file for C[C@@H]1C[C@H]2[C@@H]3CCC4=CC(=O)C=C[C@]4(C)[C@@]3(Cl)[C@@H](O)C[C@]2(C)[C@@]1(OC(=O)c1ccco1)C(=O)CCl [Mometasone furoate, reference compound] ?
Result: 108.8 ± 67.42 (1/MS) × 10^3

Query: Could you tell me which Kon is on file for COC[C@H]1C[C@@H](c2nc(-c3ccc4c(c3)COc3cc5c(ccc6nc([C@@H]7CC[C@H](C)N7C(=O)[C@@H](NC(=O)OC)C(C)C)[nH]c65)cc3-4)c[nH]2)N(C(=O)[C@H](NC(=O)OC)c2ccccc2)C1 [Velpatasvir, reference compound] ?
Result: 15.80 ± 0.71 (1/MS) × 10^3
